Measured Antibacterial activity (minimum inhibitory concentration) accompanies every entry in the list below.
- Test system: E. coli D31m4
- experimental.protocol: MIC by broth dilution method (Table 4)
- Assay type: cell-based
- Design: unit not given here
- condition.description: E. coli D31m4* Tc^r, lipopolysaccharide-deficient mutant; 18 hours
- Method: The minimum inhibitory concentration, the lowest concentration of drug that inhibits bacterial growth at 18 hours at their appropriate temperature, is determined by the broth dilution method using L-broth or Muller-Hinton broth. The Muller-Hinton broth was cation-adjusted accordingly and all bacteriological methods were performed as was described by Waitz, J. A., National Commision for Clinical Laboratory Standards Document M7-A2, vol.10, no. 8, pp.13-20, 2nd edition, Villanova, Pa. (1990). […]
readout.kind: Antibacterial activity (minimum inhibitory concentration)

>>> endpoint_result("CC1c2ccc(C3(C)CCCC3)c(O)c2C(=O)C2=C(O)C3(O)C(=O)C(C(N)=O)=C(O)C(N(C)C)C3C(O)C21 (stereo not shown) [F]")
0.78
>>> endpoint_result("CCCC(C)(C)c1ccc2c(c1O)C(=O)C1=C(O)[C@]3(O)C(=O)C(C(N)=O)=C(O)[C@@H](N(C)C)C3C(O)C1C2C (stereo partly shown) [H]")
50
>>> endpoint_result("CC1c2ccc(C(C)(C)CCCBr)c(O)c2C(=O)C2=C(O)[C@]3(O)C(=O)C(C(N)=O)=C(O)[C@@H](N(C)C)C3C(O)C21 (stereo partly shown) [I]")
1.56
>>> endpoint_result("CC1c2ccc(C(C)(C)C)c(O)c2C(=O)C2=C(O)[C@]3(O)C(=O)C(C(N)=O)=C(O)[C@@H](N(C)C)C3C(OC(=O)C3CCC3)C21 (stereo partly shown) [D]")
50
>>> endpoint_result("C[C@H]1c2cccc(O)c2C(=O)C2=C(O)[C@]3(O)C(=O)C(C(N)=O)=C(O)[C@@H](N(C)C)C3[C@@H](O)C21 (stereo partly shown) [Doxycycline, reference compound]")
0.78
>>> endpoint_result("CC1c2ccc(C(C)(C)CCC[N+](=O)[O-])c(O)c2C(=O)C2=C(O)[C@]3(O)C(=O)C(C(N)=O)=C(O)[C@@H](N(C)C)C3C(O)C21 (stereo partly shown) [M]")
12.5
>>> endpoint_result("CC1c2ccc(C(C)(C)CCCN3CCCC3)c(O)c2C(=O)C2=C(O)[C@]3(O)C(=O)C(C(N)=O)=C(O)[C@@H](N(C)C)C3C(O)C21 (stereo partly shown) [K]")
50

---

- System: E. faecalis pAM211
- experimental.protocol: MIC by broth dilution method (Table 4)
- Assay type: cell-based
- Parameters: unit not given here
- condition.description: E. faecalis pAM211 Tc^r; 18 hours
Measured Antibacterial activity (minimum inhibitory concentration) accompanies every entry in the list below.
readout.kind: Antibacterial activity (minimum inhibitory concentration)

>>> endpoint_result("CC1c2ccc(C(C)(C)CCCN3CCCC3)c(O)c2C(=O)C2=C(O)[C@]3(O)C(=O)C(C(N)=O)=C(O)[C@@H](N(C)C)C3C(O)C21 (stereo partly shown)")
25
>>> endpoint_result("CC1c2ccc(C(C)(C)CCCN(C)C)c(O)c2C(=O)C2=C(O)[C@]3(O)C(=O)C(C(N)=O)=C(O)[C@@H](N(C)C)C3C(O)C21 (stereo partly shown)")
50
>>> endpoint_result("CCC(=O)OC1C2C(=C(O)C3(O)C(=O)C(C(N)=O)=C(O)C(N(C)C)C13)C(=O)c1c(ccc(C(C)(C)C)c1O)C2C (stereo not shown)")
0.78
>>> endpoint_result("CC(=O)OC(CCC(C)C)c1ccc2c(c1O)C(=O)C1=C(O)C3(O)C(=O)C(C(N)=O)=C(O)C(N(C)C)C3C(O)C1C2C (stereo not shown)")
1.56
>>> endpoint_result("CC(=O)OC1C2C(=C(O)C3(O)C(=O)C(C(N)=O)=C(O)C(N(C)C)C13)C(=O)c1c(ccc(C(C)(C)C)c1O)C2C (stereo not shown)")
0.78
>>> endpoint_result("C[C@H]1c2cccc(O)c2C(=O)C2=C(O)[C@]3(O)C(=O)C(C(N)=O)=C(O)[C@@H](N(C)C)C3[C@@H](O)C21 (stereo partly shown) [Doxycycline, reference compound]")
12.5
>>> endpoint_result("CC1c2ccc(C(C)(C)CCC[N+](=O)[O-])c(O)c2C(=O)C2=C(O)[C@]3(O)C(=O)C(C(N)=O)=C(O)[C@@H](N(C)C)C3C(O)C21 (stereo partly shown)")
0.78
>>> endpoint_result("CC1c2ccc(C(C)(C)CCCBr)c(O)c2C(=O)C2=C(O)[C@]3(O)C(=O)C(C(N)=O)=C(O)[C@@H](N(C)C)C3C(O)C21 (stereo partly shown)")
0.78
>>> endpoint_result("CC1c2ccc(C3(C)CCCC3)c(O)c2C(=O)C2=C(O)C3(O)C(=O)C(C(N)=O)=C(O)C(N(C)C)C3C(O)C21 (stereo not shown)")
0.39
>>> endpoint_result("CCCC(C)(C)c1ccc2c(c1O)C(=O)C1=C(O)[C@]3(O)C(=O)C(C(N)=O)=C(O)[C@@H](N(C)C)C3C(O)C1C2C (stereo partly shown)")
0.78

Where these numbers come from: patent US20040152674A1
